Test system: Human papillomavirus type 1a protein E7 (residues 44-93)
EXPERIMENT_SUMMARY: small molecules binding HPV E7 44-93 – biochemical, small-molecule microarray, residues 44-93, 635 nm fluorescence, primary screen (AID 1108);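 note: E7 fragment applied at 1 µg/mL in TBST for 1 h at 4 C; score combines spot fluorescence with its signal to noise ratio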
CONDITIONS: fluorescence 635 nm, higher = more signal
composite z-score vs 0.5: at or above is met, below is not met.

# COMPOUND, ANSWER_LABEL
data = [
    ("COC(=O)[C@@]1(Cc2ccc(F)cc2)[C@H]2c3cc(C(=O)N(C)C)n(Cc4ccc(OC(F)(F)F)cc4)c3C[C@H]2CN1C(=O)c1ccccc1", "met"),
    ("COC(=O)[C@@]1(Cc2ccc(F)cc2)[C@H]2c3cc(C(=O)N(C)C)n(CCc4ccc(OC)c(Br)c4)c3C[C@H]2CN1C(=O)c1ccccc1", "met"),
    ("CCOC(=O)C[C@H]1[C@H](OC(=O)c2cc3ccccc3oc2=O)[C@@H](NC(=O)CC(C)C)c2cc(OCCCO)ccc2N1C(=O)c1ccc2ccccc2n1", "met"),
    ("C=C(COC)/C(=C/C[C@H](OC(=O)c1ccncc1)c1ccccc1OCCO)c1cc(C(=O)OC)ccc1OC", "met"),
    ("N[C@@H](Cc1ccccc1)C(=O)NCc1cn(Cc2ccccc2)nn1", "not met"),
    ("C#Cc1cc2ccccc2oc1=O", "not met"),
    ("COc1cc2c(cc1O)C(c1cccs1)N(Cc1cc3c(cc1Br)OCO3)CC2 (stereo unspecified)", "met"),
    ("[N-]=[N+]=Nc1ccccc1C[C@]1(C(=O)NCC(O)CO)COC(c2ccc(OCCCO)cc2)=N1 (stereo partly specified)", "met"),
    ("O=C1CS(=O)(=O)C(c2cccc([N+](=O)[O-])c2)N1c1ccccc1 (stereo unspecified)", "not met"),
    ("COCCOC(=O)N1C(=O)[C@@]2(c3cc(C#CCNC(N)=O)ccc31)[C@H](C(N)=O)[C@H]1C(=O)O[C@H](c3ccccc3)[C@H](c3ccccc3)N1[C@@H]2c1ccccc1OCCO", "met"),
    ("O=C(O)[C@@H]1C[C@@H]2C(=O)N3CCC[C@H]3C(=O)N2[C@@H]1c1ccc(O)cc1", "met"),
    ("COCCOC(=O)N1C(=O)[C@@]2(c3cc(C#CC4(O)CCCCCC4)ccc31)[C@H](C(=O)N1CCc3cc(OC)c(OC)cc3C1)[C@H]1C(=O)O[C@H](c3ccccc3)[C@H](c3ccccc3)N1[C@@H]2c1ccc(OCCO)cc1", "met"),
    ("COC(=O)C1=CC(CCCO)=CC(c2cccs2)N(Cc2cccc(OC(F)(F)F)c2)C=C1C(=O)OC (stereo unspecified)", "met"),
    ("C=CCN1C(=O)[C@]2(CCC(=O)OC(C)(C)C)N=C(c3ccc(OCCCO)cc3)O[C@@H]2c2ccccc21", "met"),
    ("CCOC(=O)C[C@H]1[C@H](OC(=O)c2cc3ccccc3oc2=O)[C@@H](NC(=O)c2ccccc2)c2cc(OCCCO)ccc2N1C(=O)c1ccccc1", "not met"),
    ("CCCC=C(CCC)[C@@H](NS(=O)(=O)c1ccc(C(F)(F)F)cc1)c1ccccc1", "met"),
    ("[N-]=[N+]=Nc1ccccc1C[C@]1(C(=O)O)COC(c2ccc(OCCCO)cc2)=N1", "not met"),
    ("NC(=O)NCC#Cc1ccc2c(c1)[C@]1(C(=O)N2)[C@H](c2ccccc2OCCO)N2[C@H](c3ccccc3)[C@H](c3ccccc3)OC(=O)[C@H]2[C@@H]1C(=O)NC[C@H](O)c1ccccc1", "met"),
    ("CCCCCC1=C2CNC(C)(C(=O)OC)C=C2C(C)C1=O (stereo unspecified)", "not met"),
    ("COC(=O)C1=CC(CCCO)=CC(c2cccs2)N(C)C=C1C(=O)OC (stereo unspecified)", "not met"),
    ("O=C1C2C=CC(C(O)C3CC=CCC3)N(Nc3ccccc3)C2C(=O)N1c1ccccc1 (stereo unspecified)", "met"),
    ("CCCCC(CC)C(O)C1C=CC2C(=O)N(c3ccccc3)C(=O)C2N1Nc1ccccc1F (stereo unspecified)", "met"),
    ("COc1ccc([Si](C)(C)[C@@H]2[C@@H](CCO)O[C@]3(C(=O)N(Cc4ccccc4)c4ccc(N5C(=O)c6cccc7cccc5c67)cc43)[C@H]2C)cc1", "not met"),
    ("COc1cc(OC)c(C(O)C2C=CC3C(=O)N(Cc4ccccc4)C(=O)C3N2n2cnnc2)cc1Br (stereo unspecified)", "met"),
    ("O=C1OCCC=C[C@H]2OC34C=CCN(c5ccc6ccccc6c5)C(=O)[C@H]3N(CCCO)C(=O)[C@@H]4C12 (stereo partly specified)", "not met"),
    ("CC[C@@H]1C=C(C(=O)O)[C@H](c2ccc(C#N)cc2)N1S(=O)(=O)c1ccc(C)cc1", "not met"),
    ("NCCCCCCNC(=O)[C@@H]1C[C@@H]2C(=O)N[C@@H](CCCCN)C(=O)N2[C@@H]1c1ccc(O)cc1", "met"),
    ("C=CCN1C(=O)[C@]2(CCS(=O)(=O)c3ccccc3)N=C(c3ccc(OCCCO)cc3)O[C@@H]2c2ccccc21", "met"),
    ("CCCC=C(CCC)[C@@H](NC(=O)c1cccs1)c1ccc(C(=O)OC)cc1", "met"),
    ("COCCOC(=O)N1C(=O)[C@@]2(c3cc(C#CC4=CCCCC4)ccc31)[C@H](c1ccccc1OCCO)N1[C@H](c3ccccc3)[C@H](c3ccccc3)OC(=O)[C@H]1[C@@H]2C(=O)NC[C@H](O)c1ccccc1", "met"),
]

* * *

EXPERIMENT_SUMMARY: probe aNog binding to arrayed compounds – biochemical, biotinylated probe, 635/667 nm fluorescence, primary screen (AID 1115);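 note: probe is biotinylated aNog protein used at 0.15 µg/mL for 1 h at 4 C; z-score combines 667 nm fluorescence of each spot with its signal to noise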
CONDITIONS: small-molecule microarray, higher = more signal
MEASURED_QUANTITY: composite z-score

# CHEMICAL_STRING, MEASURED
measured = [
    ("CC(C)(C)OC(=O)COc1cccc(C(=O)CCN2CCOCC2)c1", -0.419),
    ("COC(=O)[C@@]1(Cc2ccc(F)cc2)[C@H]2c3cc(C(=O)N4CCCC4)n(Cc4ccc(C)c(F)c4F)c3C[C@H]2CN1C(=O)c1ccccc1", 0.935),
    ("CCCCCCc1nc(Cc2cc(OC)c(OC)c(OC)c2)cc2c1[Si](C(C)C)(C(C)C)OC2", -0.174),
    ("[N-]=[N+]=Nc1ccccc1C[C@]1(C(=O)NCCN2CCOCC2)COC(c2ccc(OCCCO)cc2)=N1", 0.624),
]

* * *

TESTED_SYSTEM: NADPH oxidase 2 (Homo sapiens) (UniProt P04839)
Sequence (P04839 whole entry, looked up): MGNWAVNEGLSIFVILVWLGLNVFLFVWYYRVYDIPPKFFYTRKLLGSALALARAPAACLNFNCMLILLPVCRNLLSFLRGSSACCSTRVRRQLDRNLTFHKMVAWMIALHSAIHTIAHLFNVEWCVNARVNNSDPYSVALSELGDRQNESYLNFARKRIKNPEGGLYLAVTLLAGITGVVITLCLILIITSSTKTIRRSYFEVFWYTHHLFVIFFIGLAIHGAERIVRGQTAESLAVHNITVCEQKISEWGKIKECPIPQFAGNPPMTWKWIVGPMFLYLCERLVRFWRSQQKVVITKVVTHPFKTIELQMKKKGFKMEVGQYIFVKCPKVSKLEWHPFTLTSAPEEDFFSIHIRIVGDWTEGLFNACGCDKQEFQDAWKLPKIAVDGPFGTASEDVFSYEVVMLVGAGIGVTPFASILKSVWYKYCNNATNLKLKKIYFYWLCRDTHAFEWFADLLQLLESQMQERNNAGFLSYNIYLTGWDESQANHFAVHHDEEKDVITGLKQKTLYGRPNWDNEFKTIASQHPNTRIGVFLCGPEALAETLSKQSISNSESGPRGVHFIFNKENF
EXPERIMENT_SUMMARY: compounds shifting NOX2 Amplex Red fluorescence – cell-based, HEK293-NOX2, PMA-stimulated, NOX inhibitor project, primary screen (AID 1159); note: test concentration not given here
CONDITIONS: 45 min, higher = more signal, called active from +8 up or from −8 down
Calls of active or inactive are those of the source.

# COMPOUND, z-score
records = [
    ("COCCOC(=O)N1C(=O)[C@@]2(c3cc(C#CCCO)ccc31)[C@H](C(=O)Nc1nc3ccccc3s1)[C@H]1C(=O)O[C@H](c3ccccc3)[C@H](c3ccccc3)N1[C@@H]2c1ccc(O)cc1", "1.43 (inactive)"),
    ("CCCC[C@@H](O)C1=C(COc2ccccc2)C[C@H]2C(=O)N(Cc3ccccc3)C(=O)[C@H]2[C@H]1CO", "-0.77 (inactive)"),
    ("NCCCCCNC(=O)[C@@H]1C[C@@H]2C(=O)N[C@@H](CCCCN)C(=O)N2[C@@H]1c1ccc(O)cc1", "1.5 (inactive)"),
    ("CC(C)C(O)C1C=CC2C(=O)N(c3ccccc3)C(=O)C2N1Nc1ccccc1 (stereo unspecified)", "-3.32 (inactive)"),
    ("CCCCC=C[C@@H](NC(=O)OCc1ccccc1Cl)c1ccccc1", "0.027 (inactive)"),
    ("[N-]=[N+]=Nc1ccccc1C[C@]1(C(=O)O)COC(c2ccc(OCCCO)cc2)=N1", "-2.44 (inactive)"),
    ("Cc1ccc(S[C@]2(C(=O)NCc3ccccc3)CC(=O)N(C3CCCCC3)[C@@H]2c2ccc(CO)cc2I)cc1", "-0.031 (inactive)"),
    ("CCCCCCCCCCC(O)C1C=CC2C(=O)N(c3ccccc3)C(=O)C2N1Nc1ccc(C#N)cc1 (stereo unspecified)", "-1.32 (inactive)"),
    ("O=C(NCCN1CCOCC1)[C@@H]1c2ccccc2C(=O)N(C2Cc3ccccc3C2)[C@H]1c1ccc(CO)cc1", "0.182 (inactive)"),
    ("CC1CC/C=C\\[C@H]2OC34C=CCN(c5ccc6ccccc6c5)C(=O)[C@H]3N(CCCO)C(=O)[C@@H]4C2C(=O)O1 (stereo partly specified)", "1.84 (inactive)"),
    ("CCCNC(=O)[C@@]1(Sc2ccc(C)cc2)CC(=O)N(C2Cc3ccccc3C2)[C@@H]1c1ccc(CO)cc1I", "0.716 (inactive)"),
    ("COC(=O)[C@@]1(Cc2ccc(OC)cc2)[C@H]2c3cc(C(=O)N4CCCC4)n(CCc4c[nH]c5ccc(OC)cc45)c3C[C@H]2CN1C(=O)c1ccccc1", "0.547 (inactive)"),
    ("Cc1ccccc1C(O)C1C=CC2C(=O)NC(=O)C2N1Nc1ccccn1 (stereo unspecified)", "-0.444 (inactive)"),
    ("COC(=O)C1=CC(CCCO)=CC(c2cccs2)N(C)C=C1C(=O)OC (stereo unspecified)", "0.467 (inactive)"),
    ("CC(C)[Si](C#CCCCC#N)(O[C@H](c1ccccc1)c1cn(Cc2ccccc2)nn1)C(C)C", "-0.502 (inactive)"),
    ("C=CC[C@H](OC(=O)Nc1ccc(SC)cc1)c1ccc(O)c2ccccc12", "-5.83 (inactive)"),
    ("COc1ccc([Si](C)(C)[C@@H]2[C@@H](CCO)O[C@]3(C(=O)N(Cc4ccccc4)c4ccc(NC(=O)[C@H](C)O)cc43)[C@H]2C)cc1", "0.77 (inactive)"),
    ("O=C1OCCC=C[C@H]2OC34C=CCN(c5ccc6ccccc6c5)C(=O)[C@H]3N(CCCO)C(=O)[C@@H]4C12 (stereo partly specified)", "0.755 (inactive)"),
    ("COCCCNC(=O)[C@@]1(Sc2ccc(C)cc2)CC(=O)N(C2Cc3ccccc3C2)[C@@H]1c1ccc(CO)cc1", "0.00261 (inactive)"),
    ("C=CCNC(=O)[C@@H]1[C@H]2C(=O)O[C@H](c3ccccc3)[C@H](c3ccccc3)N2[C@H](c2ccccc2OCCO)[C@@]12C(=O)N(C(=O)OCCOC)c1ccc(C#CC3(O)CCCCCC3)cc12", "1.09 (inactive)"),
    ("CCOC(=O)C[C@H]1[C@H](OC(=O)c2cc3ccccc3oc2=O)[C@@H](NC(=O)CC(C)C)c2cc(OCCCO)ccc2N1C(=O)c1ccc2ccccc2n1", "1.01 (inactive)"),
    ("Cc1ccc(C(C)CC(O)C2C=CC3C(=O)N(c4ccccc4)C(=O)C3N2Nc2ccccc2)o1 (stereo unspecified)", "-3.07 (inactive)"),
    ("CC(=O)N1CC2(CC2)CC1c1ccccc1 (stereo unspecified)", "-0.328 (inactive)"),
    ("COc1ccc(C#Cc2ccc3c(c2)[C@]2(C(=O)N3)[C@H](c3ccc(O)cc3)N3[C@H](c4ccccc4)[C@H](c4ccccc4)OC(=O)[C@H]3[C@@H]2C(=O)Nc2nc3ccccc3s2)cc1", "1.13 (inactive)"),
    ("COCCOC(=O)N1C(=O)[C@@]2(c3cc(C#CCNC(N)=O)ccc31)[C@H](C(N)=O)[C@H]1C(=O)O[C@H](c3ccccc3)[C@H](c3ccccc3)N1[C@@H]2c1ccccc1OCCO", "1.9 (inactive)"),
    ("CC(C)NC(=O)[C@@]1(C)c2ccccc2C(=O)N(Cc2ccc(OC(F)(F)F)cc2)[C@H]1c1ccc(CO)cc1", "0.415 (inactive)"),
    ("COCCOC(=O)N1C(=O)[C@@]2(c3cc(C#CC4=CCCCC4)ccc31)[C@H](c1ccccc1OCCO)N1[C@H](c3ccccc3)[C@H](c3ccccc3)OC(=O)[C@H]1[C@@H]2C(=O)N1CCN(c2ncccn2)CC1", "0.976 (inactive)"),
    ("CC(C)N1C(=O)C[C@@](C(=O)NC2CC2)(c2ccc([N+](=O)[O-])cc2)[C@H]1c1ccc(CO)cc1", "-0.281 (inactive)"),
    ("COC(=O)[C@@H]1N=C(c2ccc(OCCCO)cc2)O[C@@H]1C", "-1.93 (inactive)"),
    ("CC[C@@H]1C=C(C(=O)O)[C@H](c2ccc(C#N)cc2)N1S(=O)(=O)c1ccc(C)cc1", "0.452 (inactive)"),
    ("COc1ccc(CCNC(=O)[C@@H]2c3ccccc3C(=O)N(C3CCCCC3)[C@H]2c2ccc(CO)cc2)cc1", "-0.415 (inactive)"),
]

The reported measurements were obtained from PubChem BioAssay.
